# tgt: anti-CLDN-5 ECR mAb clone 2B12
# Sequence (chain, as listed by the source, chain 1 of 2): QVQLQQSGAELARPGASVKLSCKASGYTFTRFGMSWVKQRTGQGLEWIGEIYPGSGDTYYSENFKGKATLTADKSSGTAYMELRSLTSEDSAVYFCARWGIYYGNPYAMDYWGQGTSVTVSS
# Sequence (chain, as listed by the source, chain 2 of 2): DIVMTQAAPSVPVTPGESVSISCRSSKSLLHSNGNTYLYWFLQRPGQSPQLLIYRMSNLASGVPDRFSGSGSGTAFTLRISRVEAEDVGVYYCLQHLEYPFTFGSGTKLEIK
# experimental-protocol: proteoliposome ELISA
# assay-context: chain shown with the change;; parent: est. 1.0; read off a plot
parameter-measured: ratio to parent
Returns: the value as a bare number; no unit string appended.

Requested field: ratio to parent. Item: AGIA-tagged human CLDN-5, cell-free synthesized proteoliposome, O00501 S151A (protein) MGSAALEILGLVLCLVGWGGLILACGLPMWQVTAFLDHNIVTAQTTWKGLWMSCVVQSTGHMQCKVYDSVLALSTEVQAARALTVSAVLLAFVALFVTLAGAQCTTCVAPGPAKARVALTGGVLYLFCGLLALVPLCWFANIVVREFYDPAVPVSQKYELGAALYIGWAATALLMVGGCLLCCGAWVCTGRPDLSFPVKYSAPRRPTATGDYDKKNYV 0.03
